- Tested on: MPN patients (JAK2 and non JAK2 populations)
- procedure-summary: Efficacy of standard of care drugs on patient cohort
- setup-conditions: JAK2 patients
# key: entry, value: sensitive in % of JAK2 patient populations
reported-endpoint: sensitive in % of JAK2 patient populations

1. Nc1ncn([C@H]2C[C@H](O)[C@@H](CO)O2)c(=O)n1 [Decitabine] | 34.16%
2. Nc1ncn([C@@H]2O[C@H](CO)[C@@H](O)[C@H]2O)c(=O)n1 [Azacytidine] | 34.16%
3. Cc1ccc(NC(=O)c2ccc(CN3CCN(C)CC3)cc2)cc1Nc1nccc(-c2cccnc2)n1 [Imatinib] | 0.5%
4. NC(=O)NO [Hydroxyurea] | 1%
5. O=C1CCC(N2C(=O)c3ccccc3C2=O)C(=O)N1 (stereo not drawn) [Thalidomide] | 33.17%
6. N#CC[C@H](C1CCCC1)n1cc(-c2ncnc3[nH]ccc23)cn1 [Ruxolitinib, ruxolitinib] | 81.18%

* * *

- Tested on: MPN Cell Lines (JAK2 and non JAK2 populations)
- procedure-summary: Efficacy of MPN standard of care drugs tested on cell lines
- Assay type: cell-based
- setup-conditions: non JAK2 cell lines
reported-endpoint: resistance in % of non JAK2 population (%)

1. NC(=O)NO [Hydroxyurea] | 100
2. Cc1ccc(NC(=O)c2ccc(CN3CCN(C)CC3)cc2)cc1Nc1nccc(-c2cccnc2)n1 | 83.33
3. Nc1ncn([C@H]2C[C@H](O)[C@@H](CO)O2)c(=O)n1 | 50
4. O=C1CCC(N2C(=O)c3ccccc3C2=O)C(=O)N1 (stereo not drawn) [Thalidomide] | 16.67
5. N#CC[C@H](C1CCCC1)n1cc(-c2ncnc3[nH]ccc23)cn1 | 83.33
6. Nc1ncn([C@@H]2O[C@H](CO)[C@@H](O)[C@H]2O)c(=O)n1 | 50

Value source: patent US20220305000A1
